Assay: log P by HPLC-MS
Format: physicochemical
measured quantity: chromatographic logP

compound	measured quantity	measured
Fc1ccc(Cl)nc1I [Example 1, 6-chloro-3-fluoro-2-iodopyridine]	chromatographic logP	2.53

(1) Fc1ccc(Br)nc1I [Example 3, 6-bromo-3-fluoro-2-iodopyridine]
(2) COC(=O)c1ccc(F)c(I)n1 [Example 2]
Request: Sort 1 and 2 by chromatographic logP descending and give the first. Lab log: write the label of the selected item as the result.
Result: 1
(1: 2.67, 2: 1.85)
